Where do these numbers come from? They come from patent US5747500A.

Assay: cytotoxicity: viability of mock-infected MT-4 host cells (MTT method)
Assay type: cell-based
Conditions: human, mt-4 cells, read-out: CD50: Cytotoxic concentration that causes death of cells by 50%
Experimental: The cytotoxicity of the compounds of the present invention was assessed in parallel with their antiviral activity. It was based on the viability of mock-infected host cells as determined by the MTT methods (se J. Virol. Methods, 20, 309 (1988)). CD50 : Cytotoxic concentration that causes death of cells by 50%
Recorded measurements of log10 CC50, one per entry
In our notation, the value equals log10 of CC50 in µg/mL.

Recorded log10 CC50, per entry:
QUERY SMILES	RESULT NUMBER
C/C=C/Cn1c(C(=O)c2cc(C)cc(C)c2)c(CC)c(=O)[nH]c1=O	1.54
CCc1c(Sc2cc(C)cc(C)c2)n(CC=CC(=O)O)c(=O)[nH]c1=O	1.83
C/C=C/Cn1c(Sc2cc(C)cc(C)c2)c(C(C)C)c(=O)[nH]c1=O	0.82

compound "C=CCn1c(Sc2cc(C)cc(C)c2)c(CC)c(=O)[nH]c1=O" , log10 CC50 observed: 0.59

compound "C/C=C\Cn1c(C(=O)c2cc(C)cc(C)c2)c(CC)c(=O)[nH]c1=O" , log10 CC50 observed: 0.91

compound "CCc1c(Oc2cc(C)cc(C)c2)n(CC#Cc2ccccc2)c(=O)[nH]c1=O" , log10 CC50 observed: 0.97

compound "CC(=O)OC/C=C/Cn1c(C(=O)c2cc(C)cc(C)c2)c(C(C)C)c(=O)[nH]c1=O" , log10 CC50 observed: 1.77

compound "CC#CCn1c(Sc2cc(C)cc(C)c2)c(C(C)C)c(=O)[nH]c1=O" , log10 CC50 observed: 1.23

compound "CCc1c(Sc2ccccc2)n(C/C=C/c2ccccc2)c(=O)[nH]c1=O" , log10 CC50 observed: 0.76

compound "CCc1c(Cc2ccccc2)n(C/C=C/c2ccccc2)c(=O)[nH]c1=O" , log10 CC50 observed: 0.93

compound "Cc1cc(C)cc(C(=O)c2c(C(C)C)c(=O)[nH]c(=O)n2C/C=C/CCl)c1" , log10 CC50 observed: 0.80

compound "CCc1c(Sc2cc(C)cc(C)c2)n(C/C=C\CCl)c(=O)[nH]c1=O" , log10 CC50 observed: 1.58

###

test: cytotoxicity: viability of mock-infected MT-4 host cells (MTT method); format: cell-based; details: human, mt-4 cells, read-out: CD50: Cytotoxic concentration that causes death of cells by 50%
Output Criterion met for records whose CC50 is lower than 9 µg/mL, Criterion not met for records at or above 9 µg/mL.

QUERY SMILES	QUALITATIVE LABEL
CCc1c(Sc2cc(C)cc(C)c2)n(C/C=C/c2ccccc2)c(=O)[nH]c1=O	Criterion met
Cc1cc(C)cc(Cc2c(C(C)C)c(=O)[nH]c(=O)n2C/C=C/c2ccccc2)c1	Criterion met
C/C=C\Cn1c(Oc2cc(C)cc(C)c2)c(C(C)C)c(=O)[nH]c1=O	Criterion met
C=CCn1c(Cc2cc(C)cc(C)c2)c(CC)c(=O)[nH]c1=O	Criterion not met
CCc1c(C(=O)c2cc(C)cc(C)c2)n(C/C=C/COC)c(=O)[nH]c1=O	Criterion not met
Cc1cc(C)cc(C(=O)c2c(C(C)C)c(=O)[nH]c(=O)n2C/C=C/c2ccccc2)c1	Criterion not met

Please find the next molecule below.
Does "C/C=C/Cn1c(Cc2cc(C)cc(C)c2)c(C(C)C)c(=O)[nH]c1=O" have CC50 strictly under 9 µg/mL? Criterion not met
